Target: RUNX1 (UniProt Q01196)
Sequence (Q01196 whole entry): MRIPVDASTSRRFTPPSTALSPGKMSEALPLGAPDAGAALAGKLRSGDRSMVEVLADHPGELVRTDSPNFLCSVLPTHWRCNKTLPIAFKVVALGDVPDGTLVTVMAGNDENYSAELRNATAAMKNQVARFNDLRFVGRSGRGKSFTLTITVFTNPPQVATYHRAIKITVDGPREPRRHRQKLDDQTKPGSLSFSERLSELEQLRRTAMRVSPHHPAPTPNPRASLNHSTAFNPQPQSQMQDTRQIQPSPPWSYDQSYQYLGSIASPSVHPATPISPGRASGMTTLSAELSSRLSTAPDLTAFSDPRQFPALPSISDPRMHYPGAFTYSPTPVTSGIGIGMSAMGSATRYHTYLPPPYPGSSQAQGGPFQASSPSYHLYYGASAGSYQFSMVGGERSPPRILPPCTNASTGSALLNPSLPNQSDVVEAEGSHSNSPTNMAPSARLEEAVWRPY
Experiment: RUNX1 binding intensity (PBM fluorescence), RUNX1 alone (arbitrary fluorescence units); higher = stronger binding
Details: RUNX1 concentration 2 nM; ETS1 concentration 0 nM
Please provide measured RUNX1 binding intensity for the entries that follow.

Incoming: Consider the sequence shown here: `TGGGGAACGCTGCGGATGCTGCGGTAAACCATGCGA` What is its recorded RUNX1 binding intensity?
Outgoing: 1040

Incoming: State the recorded RUNX1 binding intensity for this entry: `CCCTCACCCCAGCTTTCCTGTGGTTAACCAAACCCC`
Outgoing: 7290

Incoming: Entry `GGGGCAGCTTCCGGCAGGAGAGCCCGCATTCCCGGC` has what RUNX1 binding intensity?
Outgoing: 1460

Incoming: Given the sequence `AAAGAGGAAATCACGTACCCGAAAACCACATGCACA` , what is its reported RUNX1 binding intensity?
Outgoing: 1010

Incoming: I have this sequence here, `GCCTGAGCGGAAACCCGGCGCCACCACAAGATGGCA` , and I need its recorded RUNX1 binding intensity.
Outgoing: 990

Incoming: # get_value(readout='RUNX1 binding intensity', item= `TGTCGTACATTTCCGCCTTGTGGGCACAATCTGATT` )
Outgoing: 971

Incoming: Please look up its RUNX1 binding intensity: `GGGTGCTTCCTATAAACAATGACTCATTACCGCACT`
Outgoing: 920

Incoming: # lookup: RUNX1 binding intensity of `GGCAACCTGAGCTTCCGTGTAAAACCACAGTGTGAC`
Outgoing: 1100

Incoming: Given the sequence `GCCCGCGGCTCCGGAAGCGGCTGCGGCCCCGACCGG` , what is its reported RUNX1 binding intensity?
Outgoing: 678

Incoming: State the recorded RUNX1 binding intensity for this entry: `CCCTGAGCACTTCCCCGTAAGGCTGCGGTGCACGGG`
Outgoing: 871

Incoming: Please give the measured RUNX1 binding intensity for this sequence: `CCATCCAGGAAGCTTATGGTGCGACCGCAGTGTGCC`
Outgoing: 908

* * *

Target: RUNX1 (UniProt Q01196)
Experiment: RUNX1 binding intensity (PBM fluorescence) in presence of ETS1, normalised to RUNX1-only experiment (arbitrary fluorescence units); higher = stronger binding
Settings: RUNX1 concentration 2 nM; ETS1 concentration 25 nM
recorded metric: RUNX1 binding intensity
Enter the number alone.

Incoming: Any idea what its RUNX1 binding intensity is? The sequence is `ATGAACCACTTCCTGTGTGTTCCCACAGAGGTCAGG`
Outgoing: 7110

Incoming: Give its RUNX1 binding intensity value. Item: `TCTAGTTCTGGTTTCCGGACCGCATTCGGAACTAGA`
Outgoing: 1350

Incoming: Entry `CTTTAAGGAGGCGGAAAAGTTAACCGCGATGGGCAG` has what RUNX1 binding intensity?
Outgoing: 1050

Incoming: Need RUNX1 binding intensity, item `CGTGGCGGAAGCCGCGGGGACTGCGGGGGCGGAGTG`
Outgoing: 893

Incoming: Using the record for `TGTGTAACTTCCTGGCTTTGGTGGTTTCCCCCTCCT` , report its RUNX1 binding intensity.
Outgoing: 2180

Incoming: Please report the recorded RUNX1 binding intensity for `GGCAGCCGGCTTCCGGCTGTGGGTGGTGCGGGGGAC` .
Outgoing: 1540

Incoming: Report RUNX1 binding intensity for `AGCAGGGCTCGCCGGGAAATGTGGTTTCTCCAGCCG` please.
Outgoing: 952

Incoming: Which RUNX1 binding intensity reading was recorded for the sequence `GCGAGCACTTCCGGTGTGTGAGCCTGCGGTTGCTAC` ?
Outgoing: 3050

Incoming: I'd like to know its RUNX1 binding intensity. The sequence in question is `CTGCCTTTCCTGCTAGGGTACAAACCACAGCCTTAG`
Outgoing: 1640

Incoming: Name the reported RUNX1 binding intensity value associated with the sequence `GTGGAAAGGAAATGTGTCATCTGTGGTTTGGTTTTA`
Outgoing: 1410

Incoming: Consider the sequence shown here: `GGGCGGAAGGGGTTCGCACGCCAAGAACCGCCATGC` What is its recorded RUNX1 binding intensity?
Outgoing: 683

Incoming: Consider the sequence `GCCGCCTCTTCCTGTGTTGCAAACCACAGGTCCACC` and give its measured RUNX1 binding intensity.
Outgoing: 4540

* * *

Target: RUNX1 (UniProt Q01196)
Test: RUNX1 binding intensity (PBM fluorescence), RUNX1 alone (arbitrary fluorescence units); higher = stronger binding
Settings: RUNX1 concentration 2 nM; ETS1 concentration 0 nM
recorded metric: RUNX1 binding intensity
The answer should be written as a number, with no unit following it.

Incoming: Need RUNX1 binding intensity of `CACTTCCCGTGGGAGGATCTTGGGCTGCGGCTAGGG` , thanks.
Outgoing: 803

Incoming: Report RUNX1 binding intensity for `TGCCTCCTCGTCACAGGATGTGGTCGCTGCACCCTG` please.
Outgoing: 788

Incoming: What does the record list as RUNX1 binding intensity for `GTTTTCAAGGCAGGAAGTGGCTGTGGTGGCACGGAG` ?
Outgoing: 789

Incoming: Consider the sequence `GTTCTCCTTCCTGTGCCGAGTGTGGTTTGCTATCAA` and give its measured RUNX1 binding intensity.
Outgoing: 1250

Incoming: May I ask what RUNX1 binding intensity has been recorded for `GCTGACCCGGAAGCGCTCGTGACCACCATCTCCGAC` ?
Outgoing: 912

Incoming: What measured RUNX1 binding intensity goes with `TGTGTAACTTCCTGGCTTTGGTGGTTTCCCCCTCCT` ?
Outgoing: 757

Incoming: Name the reported RUNX1 binding intensity value associated with the sequence `CCGAGCTTAACGACATCCTGCGGCTCAGCGTGGAGG`
Outgoing: 792

Incoming: Please report the recorded RUNX1 binding intensity for `AGAATCGCATCAGGATGTGGTGAGGGAGCACATTTG` .
Outgoing: 713

Incoming: May I ask what RUNX1 binding intensity has been recorded for `GAGAAACAAACAGGATGTGGTCTCTGCCCTGGAGGA` ?
Outgoing: 737

Incoming: What RUNX1 binding intensity value was documented for this sequence, `GAGCCCAACCGGCATCCGTCGCGGTTGGACGTGGGC` ?
Outgoing: 761

Incoming: Can you look up the measured RUNX1 binding intensity of `TGTCGGGCGGATGTGTACCGGCGGTAATATAGTAAG` for me?
Outgoing: 753

Incoming: What value of RUNX1 binding intensity has been reported for the following sequence? `GGATGACATCCGGCACCAACTTAACCACTAATCTCA`
Outgoing: 947

Incoming: Given the sequence `CATGACGAAGGGGAAGGATGTGGTTTGAGGGCAGCA` , what is its reported RUNX1 binding intensity?
Outgoing: 847

Incoming: Recorded RUNX1 binding intensity for `GCGCGGCCAGAGAAAGGATGTGGTATAGCAGAAAGT` , please?
Outgoing: 865

Incoming: Consider the sequence `ACGGTGTGTCTCATTTCCTGTGGGTAACAGGCACCA` and give its measured RUNX1 binding intensity.
Outgoing: 935

Incoming: Value lookup for RUNX1 binding intensity; key = `TAGGCAGGCAGGATGTGCCTATAAGCCACATGAATG`
Outgoing: 726

Incoming: Quick check: RUNX1 binding intensity of `CCGGGCGCCACTTCCGGTCCCCGTGGTCACGTGACC` ?
Outgoing: 904

Incoming: Given the sequence `TTGTTCCACCCCCGCGGAAACCGCTGCTCGCTGGGC` , what is its reported RUNX1 binding intensity?
Outgoing: 913

Incoming: Name the recorded RUNX1 binding intensity for `CTACCCTCCCTCTTCCTGTGGTTTCTCAAACATGTC` .
Outgoing: 2470

Incoming: Form field: reported RUNX1 binding intensity of `GCAGAAGAGGAAATGGTTTGCCTGTGCGGTGGGGGA`
Outgoing: 821

Incoming: Sample `ATGTCAGGAAGAGGCTCAGGGCTGTGGTTTCTCTGT` — what was its RUNX1 binding intensity?
Outgoing: 979

Incoming: Dear colleague, I am looking for the recorded RUNX1 binding intensity of the following sequence: `TGGCAGCCACATCCTGCCTGTGGCTAGGTCAACCCA`
Outgoing: 794

Incoming: Name the reported RUNX1 binding intensity value associated with the sequence `TCCCCACACTTCCGGCCCCGCCCGCACAGCCGCACC`
Outgoing: 1130

Incoming: Which RUNX1 binding intensity value is on record for `ACAGGAAGAGATATTATATCTCCCTGCGGTTGGTTT` ?
Outgoing: 904

Incoming: Sample `GCACCACCGGAAGTAGGGCTCAACCACCGCTCATTT` — what was its RUNX1 binding intensity?
Outgoing: 1000

Incoming: # query: RUNX1 binding intensity of entry `CTTTCGGGGGCGGAAGTTGCGGTGCATTGTAGGTTC`
Outgoing: 955

Incoming: RUNX1 binding intensity lookup needed for `CAGAAACATCCCTCCTGCCGCCGCTTTGTGGTACCA` , thanks.
Outgoing: 983
